target: GLP-1 Receptor (Homo sapiens); assay: GLP-1R agonist cAMP stimulation assay, Method 2 (HDB HEK293/GLP1R/CRE-LUC, Cisbio cAMP dynamic 2 kit); assay type: cell-based; settings: HEK293/GLP1R/CRE-LUC cells (HD Biosciences); 30 min at 37° C.; 0.5 mM IBMX, 0.1% BSA; geometric mean where n>=2; read-out: GLP1R cAMP Stimulation DR: EC50 (nM) Method 2 (HDB)
Sequence (P43220 24-463): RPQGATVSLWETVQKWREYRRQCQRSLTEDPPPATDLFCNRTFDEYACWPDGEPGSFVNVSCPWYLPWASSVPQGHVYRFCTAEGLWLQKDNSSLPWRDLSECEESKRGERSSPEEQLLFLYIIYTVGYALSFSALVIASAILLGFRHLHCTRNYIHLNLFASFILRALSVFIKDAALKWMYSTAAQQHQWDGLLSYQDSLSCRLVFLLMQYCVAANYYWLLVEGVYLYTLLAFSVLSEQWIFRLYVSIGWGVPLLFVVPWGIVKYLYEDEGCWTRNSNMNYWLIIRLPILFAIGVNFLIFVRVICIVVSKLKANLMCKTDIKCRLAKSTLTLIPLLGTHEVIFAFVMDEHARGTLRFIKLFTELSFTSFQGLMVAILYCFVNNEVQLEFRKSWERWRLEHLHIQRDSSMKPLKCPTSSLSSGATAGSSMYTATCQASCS
With a cut-off of 0.09 nM, any EC50 strictly below it is called Satisfied; any EC50 meeting it or above is called Not satisfied.

>  <COMPOUND>
O=C(O)c1ccc2nc(CN3CC=C(c4csc(OCc5ccc(Cl)cc5F)n4)CC3)n(C[C@@H]3CCO3)c2n1 [Compound 111a]

>  <CLASSIFICATION>
Satisfied

$$$$
>  <COMPOUND>
Cc1cn(Cc2nc3ccc(C(=O)O)nc3n2C[C@@H]2CCO2)c(=O)cc1-c1cccc(OCc2ccc(Cl)cc2F)n1 [Compound 104aw]

>  <CLASSIFICATION>
Not satisfied

$$$$
>  <COMPOUND>
O=C(O)c1cnc2nc(CC3CC=C(c4nccc(OCc5ccc(Cl)cc5F)n4)CC3)n(C[C@@H]3CCO3)c2c1 (stereo partly shown) [Compound 119a]

>  <CLASSIFICATION>
Not satisfied

$$$$
>  <COMPOUND>
N#CC1(Cn2c(CC3CC=C(c4ncc(F)c(OCc5ccc(Cl)cc5F)n4)CC3)nc3ccc(C(=O)O)nc32)CC1 (stereo not shown)

>  <CLASSIFICATION>
Satisfied

$$$$
>  <COMPOUND>
O=C(O)c1cnc2nc(CC3CC=C(c4cccc(OCc5ccc(Cl)cc5F)n4)CC3)n(C[C@@H]3CCO3)c2c1 (stereo partly shown) [Compound 118a]

>  <CLASSIFICATION>
Satisfied

$$$$
>  <COMPOUND>
N#Cc1ccc(COc2nc(C3=CCN(Cc4nc5ccc(C(=O)O)nc5n4C[C@@H]4CCO4)CC3)cs2)c(F)c1 [Compound 112a]

>  <CLASSIFICATION>
Not satisfied

$$$$
